assay: Stability of analytes in rat plasma (auto-sampler, freeze-thaw, room temperature, long-term); conditions: 100 ng/mL, −80°C 1 month
−80°C for 1month Accuracy (%) for assorted compounds
experimental readout: −80°C for 1month Accuracy (%)

[
  {
    "structure notation": "O=c1cc(-c2ccc(O)cc2)oc2c([C@@H]3O[C@H](CO)[C@@H](O)[C@H](O)[C@H]3O)c(O)cc(O)c12",
    "experimental readout": "−80°C for 1month Accuracy (%)",
    "data value": 93.2
  },
  {
    "structure notation": "COc1ccc([C@@H]2CC(=O)c3c(O)cc(O[C@@H]4O[C@H](CO[C@@H]5O[C@@H](C)[C@H](O)[C@@H](O)[C@H]5O)[C@@H](O)[C@H](O)[C@H]4O)cc3O2)cc1O",
    "experimental readout": "−80°C for 1month Accuracy (%)",
    "data value": 93.1
  },
  {
    "structure notation": "O=c1cc(-c2ccccc2)oc2cc(O)c(O)c(O)c12",
    "experimental readout": "−80°C for 1month Accuracy (%)",
    "data value": 95.5
  },
  {
    "structure notation": "O=C(O)[C@H]1O[C@@H](Oc2cc3oc(-c4ccc(O)cc4)cc(=O)c3c(O)c2O)[C@H](O)[C@@H](O)[C@@H]1O",
    "experimental readout": "−80°C for 1month Accuracy (%)",
    "data value": 101.0
  }
]
